Target: Myotonin-protein kinase (Homo sapiens) (UniProt Q09013)
Sequence (whole entry): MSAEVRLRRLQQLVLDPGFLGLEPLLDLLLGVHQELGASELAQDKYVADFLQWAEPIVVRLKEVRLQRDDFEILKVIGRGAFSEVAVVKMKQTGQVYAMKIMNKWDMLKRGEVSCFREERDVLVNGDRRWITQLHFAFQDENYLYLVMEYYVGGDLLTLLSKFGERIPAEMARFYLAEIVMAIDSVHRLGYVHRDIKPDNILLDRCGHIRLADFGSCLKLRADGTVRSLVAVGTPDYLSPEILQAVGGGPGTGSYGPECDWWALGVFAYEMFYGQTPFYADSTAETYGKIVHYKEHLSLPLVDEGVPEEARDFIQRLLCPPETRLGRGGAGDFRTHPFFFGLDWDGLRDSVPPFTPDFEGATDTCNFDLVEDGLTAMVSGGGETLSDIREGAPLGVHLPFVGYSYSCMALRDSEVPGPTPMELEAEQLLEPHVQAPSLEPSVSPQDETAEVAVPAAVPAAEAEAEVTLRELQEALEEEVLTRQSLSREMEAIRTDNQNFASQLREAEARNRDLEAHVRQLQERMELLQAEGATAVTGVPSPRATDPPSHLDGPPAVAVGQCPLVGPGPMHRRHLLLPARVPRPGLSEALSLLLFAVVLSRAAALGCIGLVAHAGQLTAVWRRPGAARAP
Use 0.9 °C as the dividing line for ΔTm, with the line itself on the yes side and lower values as no.

molecule | tested on | qualitative label
COc1ccc2c(c1)/C(=C/c1cnc[nH]1)C(=O)N2 [SU-9516] | Myotonin-protein kinase (Homo sapiens) (UniProt Q09013) | no
COc1ccc(COc2ccc(Cc3cnc(N)nc3N)cc2OC)cc1 | Myotonin-protein kinase (Homo sapiens) (UniProt Q09013) | no
CC(C)n1cnc2/c(=N/c3cccc(Cl)c3)nc(NCCO)[nH]c21 | Myotonin-protein kinase (Homo sapiens) (UniProt Q09013) | no
O=C1NC(=O)c2c1c1c3ccccc3n3c1c1c2c2ccccc2n1C1CCC3O1 | Myotonin-protein kinase (Homo sapiens) (UniProt Q09013) | yes
O=C1Nc2ccc(I)cc2/C1=C\c1cc(Br)c(O)c(Br)c1 | Myotonin-protein kinase (Homo sapiens) (UniProt Q09013) | no
N=C(N)NCCNS(=O)(=O)c1cccc2cnccc12 | Myotonin-protein kinase (Homo sapiens) (UniProt Q09013) | no
C=CNC#N | Myotonin-protein kinase (Homo sapiens) (UniProt Q09013) | yes
Cc1cc(Nc2nc(-c3ccccc3)nc3ccccc23)n[nH]1 | Myotonin-protein kinase (Homo sapiens) (UniProt Q09013) | yes
Cc1[nH]c(/C=C2\C(=O)Nc3ccc(S(=O)(=O)N(C)c4cccc(Cl)c4)cc32)c(C)c1C(=O)N1CCN(C)CC1 | Myotonin-protein kinase (Homo sapiens) (UniProt Q09013) | yes
O=c1c(-c2ccc(F)cc2)c(-c2ccncc2)[nH]n1-c1ccc(Cl)cc1 | Myotonin-protein kinase (Homo sapiens) (UniProt Q09013) | no
O=C1Nc2ccccc2/C1=C\c1ccc[nH]1 | Myotonin-protein kinase (Homo sapiens) (UniProt Q09013) | no
Cc1nc(N)sc1-c1ccnc(Nc2cccc([N+](=O)[O-])c2)n1 | Myotonin-protein kinase (Homo sapiens) (UniProt Q09013) | yes
COc1cc(C[C@H]2C(=O)OC[C@@H]2Cc2ccc(OC)c(OC)c2)ccc1O [ARCTIGENIN] | Myotonin-protein kinase (Homo sapiens) (UniProt Q09013) | yes
Cc1nc(Nc2ncc(C(=O)Nc3c(C)cccc3Cl)s2)cc(N2CCN(CCO)CC2)n1 | Myotonin-protein kinase (Homo sapiens) (UniProt Q09013) | yes
O=c1c2ccccc2[nH]c(=S)n1CCN1CCC(=C(c2ccc(F)cc2)c2ccc(F)cc2)CC1 [DIACYLGLYCEROL KINASE INHIBITOR II] | Myotonin-protein kinase (Homo sapiens) (UniProt Q09013) | no
Nc1cccc(-c2cc3c(Oc4cccc(O)c4)ncnc3[nH]2)c1 | Myotonin-protein kinase (Homo sapiens) (UniProt Q09013) | yes
Clc1ccc(Nc2nnc(Cc3ccncc3)c3ccccc23)cc1 | Myotonin-protein kinase (Homo sapiens) (UniProt Q09013) | no
COc1ccc2c(c[n+](C)c3c4cc5c(cc4ccc23)OCO5)c1OC [CHELERYTHRINE CHLORIDE] | Myotonin-protein kinase (Homo sapiens) (UniProt Q09013) | yes
CC(C)n1cnc2c(NCc3ccccc3O)nc(NCCCO)nc21 | Myotonin-protein kinase (Homo sapiens) (UniProt Q09013) | no
NC(=O)c1ccc2[nH]c(-c3ccc(Oc4ccc(Cl)cc4)cc3)nc2c1 | Myotonin-protein kinase (Homo sapiens) (UniProt Q09013) | yes
COc1ccc(Cl)cc1NC(=O)Nc1cc(C)nc2ccccc12 | Myotonin-protein kinase (Homo sapiens) (UniProt Q09013) | no

###

biological target: Calcium/calmodulin-dependent protein kinase type 1D (Homo sapiens) (UniProt Q8IU85)
Sequence (Q8IU85 whole entry, looked up): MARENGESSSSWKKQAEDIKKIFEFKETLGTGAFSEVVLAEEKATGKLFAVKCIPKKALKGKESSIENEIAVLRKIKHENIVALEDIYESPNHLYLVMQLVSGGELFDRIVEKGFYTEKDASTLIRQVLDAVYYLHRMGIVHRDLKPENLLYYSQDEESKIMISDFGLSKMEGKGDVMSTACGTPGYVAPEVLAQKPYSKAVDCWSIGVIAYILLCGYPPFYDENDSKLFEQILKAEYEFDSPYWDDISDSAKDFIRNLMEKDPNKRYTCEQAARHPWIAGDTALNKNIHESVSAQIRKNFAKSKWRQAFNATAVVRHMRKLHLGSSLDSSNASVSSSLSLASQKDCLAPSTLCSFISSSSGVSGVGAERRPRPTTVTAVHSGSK
Simple rule here: ΔTm less than 0.2 °C is yes (1), otherwise no (0).

molecule | tested on | qualitative label
O=C1NC(=O)C(c2c[nH]c3ccccc23)=C1c1c[nH]c2ccccc12 | Calcium/calmodulin-dependent protein kinase type 1D (Homo sapiens) (UniProt Q8IU85) | no (0)
COc1ccc(CNc2nc(N(CCO)CCO)nc3c2ncn3C(C)C)cc1 | Calcium/calmodulin-dependent protein kinase type 1D (Homo sapiens) (UniProt Q8IU85) | no (0)
Oc1ccc(-c2nc(-c3ccc(F)cc3)c(-c3ccncc3)[nH]2)cc1 | Calcium/calmodulin-dependent protein kinase type 1D (Homo sapiens) (UniProt Q8IU85) | yes (1)
CC(C)(C)n1nc(-c2cccc3ccccc23)c2c(N)ncnc21 | Calcium/calmodulin-dependent protein kinase type 1D (Homo sapiens) (UniProt Q8IU85) | yes (1)
COc1cc(C[C@H]2C(=O)OC[C@@H]2Cc2ccc(OC)c(OC)c2)ccc1O | Calcium/calmodulin-dependent protein kinase type 1D (Homo sapiens) (UniProt Q8IU85) | yes (1)
O=S(=O)(NCCNC/C=C/c1ccc(Br)cc1)c1cccc2cnccc12 | Calcium/calmodulin-dependent protein kinase type 1D (Homo sapiens) (UniProt Q8IU85) | yes (1)
CC(C)c1nn(-c2c(Cl)cccc2Cl)c2nc(Cc3ccc(OCCO)cc3)[nH]c(=O)c12 | Calcium/calmodulin-dependent protein kinase type 1D (Homo sapiens) (UniProt Q8IU85) | yes (1)
O=S(=O)(c1cccc2c(Cl)cccc12)N1CCCNCC1 | Calcium/calmodulin-dependent protein kinase type 1D (Homo sapiens) (UniProt Q8IU85) | yes (1)
O=C1Nc2ccccc2/C1=C/c1cnc[nH]1 | Calcium/calmodulin-dependent protein kinase type 1D (Homo sapiens) (UniProt Q8IU85) | no (0)
CN(C)c1ncnc2nc[nH]c12 | Calcium/calmodulin-dependent protein kinase type 1D (Homo sapiens) (UniProt Q8IU85) | yes (1)
COc1cc2ncnc(Nc3ccc(NC(=O)c4ccccc4)cc3)c2cc1OC | Calcium/calmodulin-dependent protein kinase type 1D (Homo sapiens) (UniProt Q8IU85) | no (0)
COc1ccc(S(=O)(=O)N(CCO)c2ccccc2CN(C)C/C=C/c2ccc(Cl)cc2)cc1 | Calcium/calmodulin-dependent protein kinase type 1D (Homo sapiens) (UniProt Q8IU85) | yes (1)
Nc1nccc(-c2c(-c3ccc(F)cc3)ncn2C2CCNCC2)n1 | Calcium/calmodulin-dependent protein kinase type 1D (Homo sapiens) (UniProt Q8IU85) | yes (1)
Clc1ccc(Nc2nnc(Cc3ccncc3)c3ccccc23)cc1 | Calcium/calmodulin-dependent protein kinase type 1D (Homo sapiens) (UniProt Q8IU85) | no (0)
CCOc1ccc(/C=C2/SC(=O)N(CCN)C2=O)cc1 | Calcium/calmodulin-dependent protein kinase type 1D (Homo sapiens) (UniProt Q8IU85) | yes (1)
Cn1cc(C2=C(c3cn(CCCSC(=N)N)c4ccccc34)C(=O)NC2=O)c2ccccc21 | Calcium/calmodulin-dependent protein kinase type 1D (Homo sapiens) (UniProt Q8IU85) | no (0)
COC1=C2C[C@@H](C)C[C@H](OC)[C@H](O)[C@@H](C)/C=C(\C)[C@H](OC(N)=O)[C@@H](OC)/C=C\C=C(/C)C(=O)NC(=CC1=O)C2=O | Calcium/calmodulin-dependent protein kinase type 1D (Homo sapiens) (UniProt Q8IU85) | yes (1)
CSc1nc(-c2ccc(F)cc2)c(-c2ccnc(NC(C)c3ccccc3)c2)[nH]1 (racemic) | Calcium/calmodulin-dependent protein kinase type 1D (Homo sapiens) (UniProt Q8IU85) | no (0)
CC(C)N(CCO)c1nc(Nc2cccc(Cl)c2)c2ncn(C(C)C)c2n1 | Calcium/calmodulin-dependent protein kinase type 1D (Homo sapiens) (UniProt Q8IU85) | no (0)

###

target: Calcium/calmodulin-dependent protein kinase type 1D (Homo sapiens) (UniProt Q8IU85)
Each record here notes measured ΔTm.

compound | unit abbrev | ΔTm
COc1cc(O)c2c(c1)oc(=O)c1c3cc(O)c(O)cc3oc21 [WEDELOLACTONE] | °C | 1.1
O=C1NC(=O)C(c2cn(CCCn3ccnc3)c3ccccc23)=C1Nc1ccccc1 | °C | 0.2
O=C(O)/C=C/c1cc(CO)ccc1CO | °C | 0.1
COc1cc2ncnc(Nc3cccc(Br)c3)c2cc1OC | °C | 0.3
CN1CCC(Nc2ncc3ncnc(Nc4ccc(F)c(Cl)c4)c3n2)CC1 [FALNIDAMOL] | °C | 0.7
Nc1ncnc2c1c(I)cn2[C@@H]1O[C@H](CO)[C@@H](O)[C@H]1O | °C | 0.2
O=c1ccc2ccc(O)c(O)c2o1 [DAPHNETIN] | °C | 0.1
Ic1cccc(CSc2nnc(-c3ccncc3)o2)c1 | °C | -0.3
CC[C@H](CO)Nc1nc(NCc2ccccc2)c2ncn(C(C)C)c2n1 [SELICICLIB] | °C | 0
CC(C)(C)c1nc2c3ccc(F)cc3c3c(=O)[nH]ccc3c2[nH]1 | °C | 3.6
Cc1nc(Nc2ncc(C(=O)Nc3c(C)cccc3Cl)s2)cc(N2CCN(CCO)CC2)n1 | °C | 0.9
